Values were extracted from paper PMC11345841.

- STUDY_SYSTEM: EPHA5 (Homo sapiens)
- Construct: purchased Eurofins DiscoverX KINOMEscan (scanTK)
- Sequence (P54756 25-1037): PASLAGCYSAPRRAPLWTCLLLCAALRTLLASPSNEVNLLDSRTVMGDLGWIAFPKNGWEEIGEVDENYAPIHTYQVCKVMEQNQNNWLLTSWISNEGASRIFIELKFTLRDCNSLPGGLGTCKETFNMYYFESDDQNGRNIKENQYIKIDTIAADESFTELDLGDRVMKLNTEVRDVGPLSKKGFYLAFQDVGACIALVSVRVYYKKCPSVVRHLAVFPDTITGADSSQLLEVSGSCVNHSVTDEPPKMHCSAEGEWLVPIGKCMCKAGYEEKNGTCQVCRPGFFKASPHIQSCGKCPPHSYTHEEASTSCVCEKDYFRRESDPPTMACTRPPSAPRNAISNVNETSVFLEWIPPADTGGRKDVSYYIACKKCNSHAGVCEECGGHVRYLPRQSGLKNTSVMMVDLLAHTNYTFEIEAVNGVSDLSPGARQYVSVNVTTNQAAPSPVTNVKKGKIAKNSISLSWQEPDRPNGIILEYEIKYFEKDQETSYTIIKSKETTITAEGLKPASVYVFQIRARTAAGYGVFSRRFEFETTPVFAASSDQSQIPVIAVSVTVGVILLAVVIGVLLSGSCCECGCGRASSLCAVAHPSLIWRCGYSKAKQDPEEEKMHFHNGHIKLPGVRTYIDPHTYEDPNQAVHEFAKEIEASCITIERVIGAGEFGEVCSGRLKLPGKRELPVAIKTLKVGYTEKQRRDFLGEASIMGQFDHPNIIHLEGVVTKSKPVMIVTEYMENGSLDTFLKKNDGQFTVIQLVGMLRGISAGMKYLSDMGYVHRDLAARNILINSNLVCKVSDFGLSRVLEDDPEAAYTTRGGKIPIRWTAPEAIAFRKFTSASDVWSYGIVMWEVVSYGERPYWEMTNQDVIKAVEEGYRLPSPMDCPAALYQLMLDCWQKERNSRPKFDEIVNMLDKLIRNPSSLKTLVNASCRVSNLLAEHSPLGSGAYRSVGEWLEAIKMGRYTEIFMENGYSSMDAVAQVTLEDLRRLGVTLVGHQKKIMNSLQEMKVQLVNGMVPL
- METHOD_SUMMARY: KINOMEscan ScanTK
- Format: binding
- CONDITIONS_USED: @1000nM, read-out: %Control
I'd appreciate it if you could supply remaining binding at 1 µM values for the items below.
Give bare numbers, in %.

Worked examples follow.
MOLECULE: Cc1cnc(S(C)(=O)=O)nc1N1CCCC(n2nc(-c3ccc(Oc4ccccc4)cc3)c3c(N)ncnc32)C1 (centres unmarked)
STUDY_SYSTEM: EPHA5 (Homo sapiens)
remaining binding at 1 µM / %: 95

MOLECULE: C=CC(=O)N1CCC[C@@H](n2nc(-c3ccc(Oc4ccccc4)cc3)c3c(N)ncnc32)C1 [Compound 1g, Ibrutinib, reference compound]
STUDY_SYSTEM: EPHA5 (Homo sapiens)
remaining binding at 1 µM / %: 96

MOLECULE: COC(=O)c1cnc(S(C)(=O)=O)nc1N1CCCC(n2nc(-c3ccc(Oc4ccccc4)cc3)c3c(N)ncnc32)C1 (centres unmarked)
STUDY_SYSTEM: EPHA5 (Homo sapiens)
remaining binding at 1 µM / %: 100

MOLECULE: CCOC(=O)c1cnc(S(C)(=O)=O)nc1N1CCC[C@@H](n2nc(-c3ccc(Oc4ccccc4)cc3)c3c(N)ncnc32)C1
STUDY_SYSTEM: EPHA5 (Homo sapiens)
remaining binding at 1 µM / %: 100

Note: attention shifts to another entry.
Incoming: What value of remaining binding at 1 µM has been reported for the following molecule? CNC(=O)c1cnc(S(C)(=O)=O)nc1N1CCCC(n2nc(-c3ccc(Oc4ccccc4)cc3)c3c(N)ncnc32)C1 (centres unmarked)
Outgoing: 100
